Literature pIC50 values, system: the protein given by its sequence.
Target sequence: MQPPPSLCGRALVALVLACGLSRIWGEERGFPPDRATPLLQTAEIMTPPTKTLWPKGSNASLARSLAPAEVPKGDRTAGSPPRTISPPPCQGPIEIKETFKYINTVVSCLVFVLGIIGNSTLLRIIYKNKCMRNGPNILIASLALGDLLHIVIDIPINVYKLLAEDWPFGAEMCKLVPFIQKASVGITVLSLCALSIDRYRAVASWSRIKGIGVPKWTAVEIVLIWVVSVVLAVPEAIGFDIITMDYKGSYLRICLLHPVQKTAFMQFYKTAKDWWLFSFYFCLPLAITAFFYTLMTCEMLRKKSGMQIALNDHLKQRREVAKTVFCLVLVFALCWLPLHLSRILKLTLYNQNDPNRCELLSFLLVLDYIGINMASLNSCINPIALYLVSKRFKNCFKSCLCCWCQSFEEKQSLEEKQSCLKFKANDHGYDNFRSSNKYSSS
pIC50: −log10 of the molar value.
Observed Property: pIC50

Compound | Bound Operator | Recorded Result
COC(=O)c1sccc1S(=O)(=O)Nc1onc(C)c1Cl | < | 4.00
COc1ccc(C2=C(C(=O)O)[C@@H](c3ccc4c(c3)OCO4)Oc3ccc(OC(C)C)cc32)cc1 | = | 6.70
Cc1noc(NS(=O)(=O)c2ccsc2C(=O)Nc2ccccc2)c1Br | = | 4.11
Cc1noc(NS(=O)(=O)c2ccsc2C(O)Cc2ccc3c(c2)OCO3)c1Cl (stereo not drawn) | = | 4.80
CC(C)C[C@@H]1NC(=O)[C@@H](C(C)C)NC(=O)[C@@H]2CCCN2C(=O)[C@@H](CS(=O)(=O)O)NC(=O)[C@@H](Cc2c[nH]c3ccccc23)NC1=O (single isomer, unassigned) | < | 4.00
Cc1noc(NS(=O)(=O)c2ccsc2C(=O)N(C)c2ccccc2)c1Br | < | 4.00
Cc1noc(NS(=O)(=O)c2ccsc2COc2cc3c(cc2Cl)OCO3)c1Br | = | 6.12
Cc1oc([C@@H](Cc2cn(C)c3ccccc23)NC(=O)[C@H](CC(C)C)OC(=O)N(C)C2CCCCC2)nc1C(=O)O | = | 4.05

---

Literature pIC50 values, system: UniProt:P24530.
pIC50: −log10 of the molar value.
Observed Property: pIC50

Compound | Observed Property | Bound Operator | Recorded Result
CCCc1cccc(CCC)c1NC(=O)CN1C[C@H](c2ccc3c(c2)OCO3)[C@@H](C(=O)O)[C@@H]1c1ccc(OC)cc1 | pIC50 | = | 6.34
CCCCN(CCCC)C(=O)CN1C[C@H](c2ccc3c(c2)OCO3)[C@@H](CC(=O)O)[C@@H]1c1ccc(OC)cc1 | pIC50 | = | 5.29
CC(C)C[C@@H]1NC(=O)[C@@H](C2CCCC2)NC(=O)[C@@H]2CCCN2C(=O)[C@@H](CC(=O)O)NC(=O)[C@@H](Cc2c[nH]c3ccccc23)NC1=O (single isomer, unassigned) | pIC50 | = | 4.68
Cc1[nH]c([C@@H](Cc2cn(C)c3ccccc23)NC(=O)[C@H](CC(C)C)NC(=O)OC2CCCCC2)nc1C(=O)O | pIC50 | < | 4.00
COc1ccccc1Oc1c(NS(=O)(=O)c2ccc(C)cn2)nc(-c2ncccn2)nc1OCCOC(=O)Nc1ccccn1 | pIC50 | = | 6.77
Cc1noc(NS(=O)(=O)c2ccsc2C(=O)Nc2cc3c(cc2CCCO)OCO3)c1Cl | pIC50 | = | 5.04
COc1ccc([C@@H]2c3nc(NC(C)C)ccc3[C@H](c3ccc4c(c3)OCO4)[C@H]2C(=O)O)c(OC(C)C)c1 | pIC50 | = | 7.06
CCCc1cc2c(cc1OCc1ccsc1S(=O)(=O)Nc1onc(C)c1Br)OCO2 | pIC50 | = | 5.88
Cc1oc([C@@H](Cc2cn(C)c3ccccc23)NC(=O)[C@H](CC(C)C)NC(=O)NC2CCCCC2)nc1C(=O)O | pIC50 | < | 4.00
CC(=O)c1c(NC(=O)c2sccc2S(=O)(=O)Nc2onc(C)c2Cl)ccc2c1OCO2 | pIC50 | = | 4.49
CCCc1ccc(-c2ccsc2S(=O)(=O)Nc2onc(C)c2Br)cc1 | pIC50 | = | 5.09
COc1ccc([C@H]2[C@H](C(=O)O)[C@@H](c3ccc4c(c3)OCO4)CN2CC(=O)Nc2cc(C)ccc2C)cc1 | pIC50 | = | 7.09
CCCc1nc(NS(=O)(=O)c2ccc(C(C)(C)C)cc2)c(Oc2ccccc2OC)c(OCCOC(=O)Nc2ccccn2)n1 | pIC50 | = | 7.20
Cc1cccc(NC(=O)c2sccc2S(=O)(=O)Nc2onc(C)c2Br)c1 | pIC50 | = | 4.17
Cc1oc([C@@H](Cc2cn(C)c3ccccc23)NC(=O)[C@H](CC(C)C)OC(=O)OC2CCCCC2)nc1C(=O)O | pIC50 | = | 4.10
CCc1cccc(OC)c1NC(=O)CN1C[C@H](c2ccc3c(c2)OCO3)[C@@H](C(=O)O)[C@@H]1c1ccc(OC)cc1 | pIC50 | = | 8.24
